Biological target: PDE9A (Homo sapiens)
Sequence (O76083 whole entry): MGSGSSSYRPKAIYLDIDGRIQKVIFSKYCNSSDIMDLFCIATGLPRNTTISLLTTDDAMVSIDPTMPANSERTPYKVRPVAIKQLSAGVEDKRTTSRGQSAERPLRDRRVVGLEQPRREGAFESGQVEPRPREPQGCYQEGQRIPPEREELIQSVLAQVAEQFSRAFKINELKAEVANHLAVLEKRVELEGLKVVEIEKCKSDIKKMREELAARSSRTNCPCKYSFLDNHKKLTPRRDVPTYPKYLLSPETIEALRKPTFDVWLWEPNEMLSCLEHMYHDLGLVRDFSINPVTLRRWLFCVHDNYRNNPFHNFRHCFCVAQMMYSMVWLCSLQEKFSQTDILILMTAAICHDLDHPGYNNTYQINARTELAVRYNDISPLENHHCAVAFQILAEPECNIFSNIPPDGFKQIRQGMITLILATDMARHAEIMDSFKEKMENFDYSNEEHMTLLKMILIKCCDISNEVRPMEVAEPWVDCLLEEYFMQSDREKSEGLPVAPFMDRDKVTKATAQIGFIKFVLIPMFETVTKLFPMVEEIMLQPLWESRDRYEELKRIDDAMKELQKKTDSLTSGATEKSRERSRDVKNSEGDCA
Experiment: PDE enzymatic activity assay (SPA), PDE9A
Assay type: biochemical
Set-up: made in house; host or cells: SF9 insect cells (crude lysate used as enzyme source)
Details: 10 micromolar; cGMP substrate; for illustrative purposes
observation.type: inhibition at 10 µM (%)
Reply with just the number (in %).

Report measured inhibition at 10 µM; entry is O=c1[nH]c(Cc2ccccc2OC(F)(F)F)nc2c1cnn2-c1cc(Cl)ccc1Cl [Example 16]
93

Complete the entry with inhibition at 10 µM for Cc1ccccc1-n1ncc2c(=O)[nH]c(Cc3ccccc3OC(F)(F)F)nc21 [Example 2]
98

Identify the reported inhibition at 10 µM for the following entry. CCOc1ccc(Cl)c(-n2ncc3c(=O)[nH]c(Cc4ccccc4OC(F)(F)F)nc32)c1 [Example 20]
87

Find the measured inhibition at 10 µM of COc1ccc(Cl)cc1-n1ncc2c(=O)[nH]c(Cc3ccccc3OC(F)(F)F)nc21 [Example 4] and report it.
102

Give the value of inhibition at 10 µM reported for the following: Cc1ccc(Br)c(-n2ncc3c(=O)[nH]c(Cc4ccccc4OC(F)(F)F)nc32)c1 [Example 10]
88

Annotate the molecule O=C(c1ccc(Cl)c(-n2ncc3c(=O)[nH]c(Cc4ccccc4OC(F)(F)F)nc32)c1)N1CCCCC1 [Example 35] with its measured inhibition at 10 µM.
93

For the molecule O=c1[nH]c(Cc2ccccc2OC(F)(F)F)nc2c1cnn2-c1cc(F)ccc1Cl [Example 5] , report inhibition at 10 µM.
96

Supply inhibition at 10 µM value. Item: O=c1[nH]c(Cc2ccccc2OC(F)(F)F)nc2c1cnn2-c1cc(Cl)ccc1Br [Example 8]
93
